# Test system: COLO-684
# procedure.summary: cells
# Type: functional, cell-based, Homo sapiens
# condition.parameters: Homo sapiens, COLO-684
# Description: SANGER: Inhibition of human COLO-684 cell growth in a cell viability assay.
Rule for this label: true (1) means IC50 is less than 200 nM; false (0) means IC50 is at least 200 nM.

CS(=O)(=O)c1ccc(C(=O)Nc2ccc(Cl)c(-c3ccccn3)c2)c(Cl)c1 : false (0)
COc1cc(-c2nn([C@H]3CC[C@H](N4CCN(C(C)=O)CC4)CC3)c3ncnc(N)c23)ccc1NC(=O)c1cc2ccccc2n1C : false (0)
COc1cc(N2CCN(C)CC2)ccc1Nc1ncc2c(n1)N(C)c1ccccc1C(=O)N2C : false (0)
OCCCNc1cc(-c2ccnc(Nc3cccc(Cl)c3)n2)ccn1 : true (1)
Cc1cc([N+](=O)[O-])ccc1NS(=O)(=O)c1cc(Cl)ccc1Cl : false (0)
CC(C)CCN1c2nc(Nc3cc(F)c(O)c(F)c3)ncc2N(C)C(=O)C1C (stereo unspecified) : false (0)
Nc1ccn([C@@H]2O[C@H](CO)[C@@H](O)C2(F)F)c(=O)n1 : true (1)
CO[C@H]1C[C@@H]2CC[C@@H](C)[C@@](O)(O2)C(=O)C(=O)N2CCCC[C@H]2C(=O)O[C@H]([C@H](C)C[C@@H]2CC[C@@H](OC(=O)C(C)(CO)CO)[C@H](OC)C2)CC(=O)[C@H](C)/C=C(\C)[C@@H](O)[C@@H](OC)C(=O)[C@H](C)C[C@H](C)/C=C/C=C/C=C/1C : true (1)
Nc1cccc2c1CN(C1CCC(=O)NC1=O)C2=O (stereo unspecified) [LENALIDOMIDE] : false (0)
COc1cccc2c1C(=O)c1c(O)c3c(c(O)c1C2=O)C[C@@](O)(C(=O)CO)C[C@@H]3O[C@H]1C[C@H](N)[C@H](O)[C@H](C)O1 : false (0)
